# tested target: Mouse 12/15-LOX E. coli (Mus musculus (Mouse), UniProt P39654)
# Sequence (P39654 whole entry): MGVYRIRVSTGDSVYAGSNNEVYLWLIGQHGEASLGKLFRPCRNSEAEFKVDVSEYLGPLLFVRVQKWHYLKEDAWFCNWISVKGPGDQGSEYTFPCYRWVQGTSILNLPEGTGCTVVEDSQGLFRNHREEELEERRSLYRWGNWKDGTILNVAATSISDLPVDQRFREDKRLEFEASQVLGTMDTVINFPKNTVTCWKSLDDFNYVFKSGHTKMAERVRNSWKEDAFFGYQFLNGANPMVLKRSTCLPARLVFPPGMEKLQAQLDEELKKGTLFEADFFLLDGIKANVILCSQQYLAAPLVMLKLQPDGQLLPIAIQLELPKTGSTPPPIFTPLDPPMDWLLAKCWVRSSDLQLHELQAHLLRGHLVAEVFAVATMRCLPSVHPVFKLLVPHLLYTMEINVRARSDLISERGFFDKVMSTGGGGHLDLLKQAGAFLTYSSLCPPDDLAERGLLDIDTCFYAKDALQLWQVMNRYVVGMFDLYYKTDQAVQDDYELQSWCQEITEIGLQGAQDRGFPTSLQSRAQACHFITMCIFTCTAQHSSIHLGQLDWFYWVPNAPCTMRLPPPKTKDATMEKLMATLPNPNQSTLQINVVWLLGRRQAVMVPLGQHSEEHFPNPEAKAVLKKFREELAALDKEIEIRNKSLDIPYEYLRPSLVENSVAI
# test name: Mouse 12/15-LOX E. coli IC50
measurement kind: pIC50
As a rule, pIC50 stands for the negative log10 of the concentration, concentration in M.

Exam item: Using known records, supply pIC50 for CNc1oc(-c2cc(Cl)cc(Cl)c2Cl)nc1C#N [Compound 1]
Marked response: 6.74

----------
# test name: Metabolic stability of exemplified compounds (Example 4)
# Format: in vitro ADME
# experimental context: Rat liver microsomes
measurement kind: microsomal CLint

Exam item: Fill in microsomal CLint for record N#Cc1nc(-c2cc(Cl)cc(Cl)c2Cl)oc1NCCOCCO [Compound 28]
Marked response: < 20 µL/min/mg

Exam item: Provide measured microsomal CLint value, entry: CC(C)OCCOCCNc1oc(-c2cc(Cl)cc(Cl)c2Cl)nc1C#N [Compound 49]
Marked response: 20 to 100 µL/min/mg

Exam item: Write down microsomal CLint measured for item CNc1oc(-c2cc(Cl)cc(Cl)c2Cl)nc1C#N [Compound 1]
Marked response: < 20 µL/min/mg

Exam item: Using known records, supply microsomal CLint for N#Cc1nc(-c2cc(Cl)cc(Cl)c2Cl)oc1NCCCCCO [Compound 22]
Marked response: 20 to 100 µL/min/mg

Exam item: Report microsomal CLint, nothing else, for this molecule: COC/C=C/CNc1oc(-c2cc(Cl)cc(Cl)c2Cl)nc1C#N [Compound 45]
Marked response: 20 to 100 µL/min/mg

Exam item: For the molecule COCCNc1oc(-c2cc(Cl)cc(Cl)c2Cl)nc1C#N [Compound 39] , give its reported microsomal CLint.
Marked response: 20 to 100 µL/min/mg

Exam item: Note down microsomal CLint recorded for N#Cc1nc(-c2cc(Cl)cc(Cl)c2Cl)oc1NC/C=C/COCc1ccccc1 [Compound 47]
Marked response: 100 to 200 µL/min/mg

Exam item: Identify microsomal CLint associated with the molecule COCC/C=C/CNc1oc(-c2cc(Cl)cc(Cl)c2Cl)nc1C#N [Compound 46]
Marked response: 20 to 100 µL/min/mg

Exam item: Quote microsomal CLint reported for N#Cc1nc(-c2cc(Cl)cc(Cl)c2Cl)oc1NCC#CCOCc1ccccc1 [Compound 43] please.
Marked response: 20 to 100 µL/min/mg

Exam item: Tell me its microsomal CLint given N#Cc1nc(-c2cc(Cl)cc(Cl)c2Cl)oc1NCCCCO [Compound 17] as the entry.
Marked response: < 20 µL/min/mg

Exam item: Answer with the recorded microsomal CLint of N#Cc1nc(-c2cc(Cl)cc(Cl)c2Cl)oc1NCCCO [Compound 16] only.
Marked response: 20 to 100 µL/min/mg

Exam item: Quick one: give measured microsomal CLint for COCCOCCNc1oc(-c2cc(Cl)cc(Cl)c2Cl)nc1C#N [Compound 32]
Marked response: < 20 µL/min/mg
